Attribution: the RNAGym collection of RNA variant scans (doi:10.1093/nar/gkz1192)

Catalogue of self-cleavage readings, one per entry.
B1: CPEB3 Ribozyme (parent)
chain: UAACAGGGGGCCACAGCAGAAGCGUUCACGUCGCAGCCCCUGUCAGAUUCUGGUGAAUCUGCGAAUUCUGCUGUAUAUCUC

# Variants of: B1
# Assay comment: self-cleavage, relative activity (ratio to wild type); higher = more cleavage; in vitro, sequencing

{"Mutant": "U58C U60G", "self-cleavage": 0.24}
{"Mutant": "U48C C71A", "self-cleavage": 0.49}
{"Mutant": "A3U G52A", "self-cleavage": 1.1}
{"Mutant": "C23U U72A", "self-cleavage": 0.22}
{"Mutant": "A45U C79U", "self-cleavage": 0.77}
{"Mutant": "A3G A20G", "self-cleavage": 0.86}
{"Mutant": "C34G U69C", "self-cleavage": 0.21}
{"Mutant": "A35U G53U", "self-cleavage": 0.76}
{"Mutant": "G9U U51A", "self-cleavage": 0.14}
{"Mutant": "A5G U49C", "self-cleavage": 0.31}
{"Mutant": "A56U A64C", "self-cleavage": 0.19}
